# Lookup of reported IC50 (nM), IGF-1 dependent proliferation of NIH-3T3/hIGF-1R cells (BrdU ELISA) keyed by entry
# Assay target: human IGF-I receptor on cells (NIH-3T3 fibroblasts expressing the human IGF-IR; DU145 cells) (human, UniProt P08069 31-1367)
# Assay remarks: cell-based or functional assay

[
  {
    "Binder": "PINT-11A7 IgG (antibody, V domains shown) VH: EVQLVQSGAEVKKPGASVKVSCKASGYSFTNYGLDWVRQAPGQGLEWMGWISPYTGYTNYAQKFQGRVTMTTDKSTSTAYMDLRSLRSDDTAVYYCAREIFSHCTGGSCYPFDSWGRGTMVTVSS VL: LSSELTQDPAVSVALGQTVRITCQGDSLRSYYASWYQQKPGQAPVLVIYGKNNRPSGIPDRFSGSSSGNTASLTITGAQAEDEADYYCNSRDSSGNHRNWVFGGGTKVTVLG",
    "Observed measurement": "> 70 nM"
  }
]

Let us move to another entry and its IC50 (nM), IGF-1 dependent proliferation of NIH-3T3/hIGF-1R cells (BrdU ELISA).
Req: Dear colleague, I am looking for the recorded IC50 (nM), IGF-1 dependent proliferation of NIH-3T3/hIGF-1R cells (BrdU ELISA) of the following binder: PINT-12A2 IgG (antibody, V domains shown) VH: EVQLVQSGAEVKKPGASVKVSCKASGYSFTNYGLNWVRQAPGQGLEWMGWISPYTGYTNYAQKFQGRVTMTTDKSTSTAYMDLRSLRSDDTAVYYCAREIFSHCTGGSCYPFDSWGQGTLVTVSS VL: LSSELTQDPAVSVALGQTVRITCQGDSLRNYYASWYQQKPGQAPLLVMFGKNNRPSEIPGRFSGSSSGNTASLTITGAQAEDEADYYCNSRDSNSHQWVFGGGTKLTVLG
Resp: > 70 nM
